Data origin: a melting point compilation (Tetko et al.)

Listing of entries alongside the reported melting point.

Worked examples, 3 molecules total:
1. O=S(=O)(Cl)c1ccc(S(=O)(=O)NC2CC2)cc1
126 to 128 °C
2. Cc1ccoc1C(=O)CC#N
93 to 95 °C
3. CCSc1ccccc1C(=O)O
135 to 137 °C

Qu. Name the reported melting point value associated with the molecule O=C(O)CNC(=O)c1ccc(Br)s1
Ans. 177 to 179 °C

Qu. Name the reported melting point value associated with the molecule O=Cc1cccc(OCc2cccc(C(=O)O)c2)c1
Ans. 122 to 124 °C

Qu. Name the reported melting point value associated with the molecule O=C(O)c1cc(S(=O)(=O)Cl)c(Cl)cc1F
Ans. 144 to 146 °C

----------
Listing of entries alongside the reported melting point.

Worked examples, 5 molecules total:
1) C1CCc2nnc(C3CCCN3)n2CC1 (configuration not stated)
91 to 93 °C
2) Cc1ccc2c(c1)C(=O)N(C(C)C(=O)O)C2=O (configuration not stated)
141 to 143 °C
3) CC(=O)N1CCCc2cc(S(=O)(=O)Cl)ccc21
127 to 129 °C
4) CCCC(C#N)NC(=O)c1ccccc1 (configuration not stated)
89 to 91 °C
5) O=C1CC2(CCCCC2)C(=O)N1
132 to 140 °C

Qu. Name the reported melting point value associated with the molecule O=C(O)CSCc1cc(-c2cccs2)on1
Ans. 113 to 115 °C

Qu. Name the reported melting point value associated with the molecule Cc1cc(C(=O)O)cc(S(=O)(=O)N2CCC(C)CC2)c1C
Ans. 176 to 178 °C

Qu. Name the reported melting point value associated with the molecule CCOc1ccc(Br)cc1N
Ans. 51 to 53 °C

Qu. Name the reported melting point value associated with the molecule CNC(C)c1ccc(-n2cncn2)cc1 (configuration not stated)
Ans. 44 to 48 °C

----------
readout-name: melting point

1. COc1ccc(C(=O)O)cc1-c1ccc(C(C)(C)C)cc1
259 to 261 °C
2. Cc1cc(N)nc(Cl)n1
220 to 222 °C
3. CN(C)S(=O)(=O)c1cccc(NC(=O)CCl)c1
74 to 78 °C
4. Nc1nnc(-c2ccccn2)[nH]1
199 to 201 °C
5. CN(C)C(Cc1ccccc1)C(=O)O (configuration not stated)
225 to 227 °C

Qu. Name the reported melting point value associated with the compound CNc1ccccc1C(=O)NCCc1ccc(OC)cc1
Ans. 96 to 98 °C

Qu. Name the reported melting point value associated with the compound Cc1ccccc1COc1cccc(CC(=O)O)c1
Ans. 52 to 54 °C

Qu. Name the reported melting point value associated with the compound Sc1nnc(-c2ccccc2)s1
Ans. 199 to 201 °C

Qu. Name the reported melting point value associated with the compound Nc1ccc2[nH]c(=O)[nH]c2c1
Ans. 167 to 169 °C

Qu. Name the reported melting point value associated with the compound Cc1ccc(NC(=O)CCl)c(Cl)c1
Ans. 98 to 100 °C

----------
Listing of entries alongside the reported melting point.

Worked examples, 4 compounds total:
1) Cc1cc(N)n(-c2ccncc2)n1
96 to 98 °C
2) ClCc1coc(-c2cccs2)n1
45 to 57 °C
3) Cc1ccc(/C=C/c2n[nH]c(S)n2)o1
275 to 277 °C
4) NC(=O)Cn1ncc(Cl)c(Cl)c1=O
245 to 247 °C

Qu. Name the reported melting point value associated with the compound Cc1nc2ccccc2c2c(N)c3ccccc3n12
Ans. 200 to 202 °C

Qu. Name the reported melting point value associated with the compound Cc1ccc(CNC(=O)NCC(=O)O)cc1
Ans. 174 to 176 °C

Qu. Name the reported melting point value associated with the compound O=[N+]([O-])c1ccc(-c2noc(C(F)F)n2)cc1
Ans. 76 to 78 °C

Qu. Name the reported melting point value associated with the compound Nc1ccnn1Cc1ccccn1
Ans. 68 to 70 °C

Qu. Name the reported melting point value associated with the compound O=C(C1Cc2ccccc2CN1)N1CCCC1 (stereo not drawn)
Ans. 88 to 90 °C

Qu. Name the reported melting point value associated with the compound O=Cc1cc([N+](=O)[O-])ccc1OC(F)F
Ans. 46 to 48 °C

Qu. Name the reported melting point value associated with the compound CC(O)CS(C)(=O)=O (stereo not drawn)
Ans. 51 to 53 °C

Qu. Name the reported melting point value associated with the compound CC(=O)Cn1c(=O)oc(=O)c2ccccc21
Ans. 151 to 153 °C

Qu. Name the reported melting point value associated with the compound c1ccc(-c2nnc(-c3ccccc3)[nH]2)cc1
Ans. 189 to 191 °C

----------
Listing of entries alongside the reported melting point.

Worked examples, 3 molecules total:
1) CCN(CC)S(=O)(=O)c1ccc(NCCO)c(N)c1
157 to 159 °C
2) O=C(CCl)Nc1ccc(Oc2cccc(Cl)c2)cc1
117 to 119 °C
3) O=C(O)c1ccc(S(=O)(=O)Nc2ccncc2)cc1
297 to 299 °C

Qu. Name the reported melting point value associated with the molecule Cc1ccc(C(=O)NO)cc1O
Ans. 169 to 171 °C

Qu. Name the reported melting point value associated with the molecule CCNC(=O)COc1ccc(C=O)cc1OC
Ans. 109 to 111 °C

Qu. Name the reported melting point value associated with the molecule Nc1ccnn1CCc1ccccc1
Ans. 67 to 69 °C

Qu. Name the reported melting point value associated with the molecule Nc1ccc2cccc(Cl)c2n1
Ans. 165 to 167 °C

Qu. Name the reported melting point value associated with the molecule Cc1nn(C(C)(C)C)c(C)c1S(=O)(=O)Cl
Ans. 68 to 70 °C

Qu. Name the reported melting point value associated with the molecule O=C(O)CCCn1ccc2cc(Cl)ccc21
Ans. 79 to 81 °C

Qu. Name the reported melting point value associated with the molecule CCOC(=O)c1[nH]nc2ccc(Br)cc12
Ans. 231 to 233 °C

Qu. Name the reported melting point value associated with the molecule COC(=O)c1ccc(N)c(OCC(F)(F)F)c1
Ans. 117 to 119 °C

Qu. Name the reported melting point value associated with the molecule Nc1ccc(Oc2ccnc3cc(Cl)ccc23)c(F)c1
Ans. 154 to 156 °C

Qu. Name the reported melting point value associated with the molecule N#Cc1ccc(CBr)c(F)c1
Ans. 75 to 77 °C

Qu. Name the reported melting point value associated with the molecule Nc1ccc(-c2cn3ccsc3n2)cc1
Ans. 199 to 201 °C

Qu. Name the reported melting point value associated with the molecule Ic1ccc(OCCc2ccccc2)cc1
Ans. 64 to 66 °C

Qu. Name the reported melting point value associated with the molecule NCC(c1ccccc1)c1c[nH]c2ccccc12 (stereo not drawn)
Ans. 123 to 125 °C

Qu. Name the reported melting point value associated with the molecule COc1ncc(Br)cn1
Ans. 55 to 60 °C

Qu. Name the reported melting point value associated with the molecule CCn1c(=O)[nH]c(=O)c2cc(C(=O)O)cnc21
Ans. 316 to 318 °C

Qu. Name the reported melting point value associated with the molecule O=c1[nH]c2ccccc2c(=O)n1CCCO
Ans. 174 to 176 °C

Qu. Name the reported melting point value associated with the molecule Cc1ccc(NCCC(N)=S)cc1
Ans. 94 to 96 °C

Qu. Name the reported melting point value associated with the molecule O=S(=O)(c1ccc(F)cc1F)N1CCNCC1
Ans. 93 to 95 °C

Qu. Name the reported melting point value associated with the molecule CN(CCCC(=O)O)C1=NS(=O)(=O)c2ccccc21
Ans. 159 to 161 °C

Qu. Name the reported melting point value associated with the molecule N#Cc1cnc2ccccc2c1OCCO
Ans. 172 to 174 °C

Qu. Name the reported melting point value associated with the molecule CN(CCO)CC(=O)O
Ans. 136 to 138 °C

Qu. Name the reported melting point value associated with the molecule CC(C)NC(=O)Nc1ccccc1[N+](=O)[O-]
Ans. 169 to 171 °C

----------
Listing of entries alongside the reported melting point.

1. NN1CCCC1=O
47 to 49 °C
2. Cc1nc2ccccn2c1CN1CCNCC1
163 to 165 °C
3. CC(=O)c1csc(C(=O)O)c1
149 to 151 °C
4. O=C(O)C=CC1=CCCC1
147 to 149 °C
5. Cc1cc(NC(=O)C(Br)C(C)C)no1 (centres undefined)
96 to 98 °C

Qu. Name the reported melting point value associated with the molecule CSc1nc2ncnc(Cl)c2s1
Ans. 149 to 151 °C

Qu. Name the reported melting point value associated with the molecule O=[N+]([O-])c1ccc2nc(S)oc2c1
Ans. 192 to 194 °C

----------
readout-name: melting point

1. Cc1ccc(C=CC(=O)O)o1
118 to 120 °C
2. BrC12CC3CC(C1)CC(Br)(C3)C2
108 to 110 °C

Please examine the following record next.
Qu. Name the reported melting point value associated with the molecule C#CCNC(=O)CBr
Ans. 73 to 75 °C

----------
Listing of entries alongside the reported melting point.

Worked examples, 3 compounds total:
1. NC(C(=O)O)(c1cccc(F)c1)C(F)(F)F (stereo unspecified)
131 to 133 °C
2. O=C(O)c1cccn1Cc1cccnc1
172 to 174 °C
3. OC1CN(c2ccc(C(F)(F)F)cn2)C1
136 to 138 °C

Qu. Name the reported melting point value associated with the compound Cc1ccc(N(CCC#N)C(=O)CCl)cc1
Ans. 56 to 58 °C

Qu. Name the reported melting point value associated with the compound O=C(O)c1cc(F)cc(Cl)c1O
Ans. 210 to 212 °C
